System: ATP;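 also: ATP exposure 15 min at 22 °C before imaging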
Assay Comment: switch fluorescence ratio, 500 uM ATP over buffer (Cy3 cluster intensity, sum of 5 cycles each) (fold (ratio)); higher = stronger signal-on switching upon ATP binding; sequences stand for … in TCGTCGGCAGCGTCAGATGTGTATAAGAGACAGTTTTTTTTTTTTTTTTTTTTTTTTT…TC
Condition Description: aptamer strand: ATP DNA aptamer (quencher-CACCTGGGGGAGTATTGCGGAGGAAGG + anchor), 100 nM annealed; ATP concentration: 500 uM
Catalogue of sequences with associated switch fluorescence ratio

# example entries with known answers
sequence_record=CACGTAAAAA endpoint_result=1.16
sequence_record=CGAGGGGGG endpoint_result=0.997
sequence_record=TAATTCCGGG endpoint_result=1.01

Query sequence follows.
Briefly, switch fluorescence ratio measured for TATCCATGGA : 1.01
